Tested on: 598228-144-R-J1-PDC complex spheroids, viability;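 note: spheroids exposed to compounds for seven days before readout; 100% = DMSO vehicle control wells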
Test: Anticancer human tumor 598228-144-R-J1-PDC patient-derived serous endometrial adenocarcinoma cell line growth inhibition [CLK]
Conditions: second compound 1 µM; first compound 3.16 µM; hits give low values
Just a reminder that ties go to -1: only viability, T/C strictly below 20% counts as 1.

Solved entries:
>  <molecule>
COc1ccc([C@@H](O)c2cc(-c3ncnc4cc(N5CCOCC5)ccc34)c(F)cc2Cl)nn1 + CNC(=O)c1ccc(Nc2nc(OC3CCCC3)c3c(-c4ccc5nc(C)oc5c4)c[nH]c3n2)c(OC)c1

>  <group>
-1

$$$$
>  <molecule>
COC1C=CCC(C)C(C)S(=O)(=O)NC(=O)c2ccc3c(c2)N(CC2CCC21)CC1(CCCc2cc(Cl)ccc21)CO3 (stereo not drawn) + CNC(=O)c1ccc(Nc2nc(OC3CCCC3)c3c(-c4ccc5nc(C)oc5c4)c[nH]c3n2)c(OC)c1

>  <group>
-1

$$$$
>  <molecule>
O=c1[nH]cc(F)c(=O)[nH]1 + CN1CCN(c2cc(C(=O)Nc3cc4cc(-c5cnn(C)c5)ccc4cn3)ccn2)CC1

>  <group>
1

$$$$
>  <molecule>
COc1cccc2c1C(=O)c1c(O)c3c(c(O)c1C2=O)CC(O)(C(=O)CO)CC3OC1CC(N)C(O)C(C)O1 (stereo not drawn) + CNC(=O)c1ccc(Nc2nc(OC3CCCC3)c3c(-c4ccc5nc(C)oc5c4)c[nH]c3n2)c(OC)c1

>  <group>
1

$$$$
>  <molecule>
O=C(c1cc(Cc2n[nH]c(=O)c3ccccc23)ccc1F)N1CCN(C(=O)C2CC2)CC1 + CNC(=O)c1ccc(Nc2nc(OC3CCCC3)c3c(-c4ccc5nc(C)oc5c4)c[nH]c3n2)c(OC)c1

>  <group>
-1

$$$$
>  <molecule>
C#Cc1c(F)ccc2cc(O)cc(-c3ncc4c(N5CC6CCC(C5)N6)nc(OCC56CCCN5CC(F)C6)nc4c3F)c12 (stereo not drawn) + CNC(=O)c1ccc(Nc2nc(OC3CCCC3)c3c(-c4ccc5nc(C)oc5c4)c[nH]c3n2)c(OC)c1

>  <group>
-1

$$$$

Please determine if CC(Nc1ccc2c(c1)OCCn1cc(N3C(=O)OCC3C(F)F)nc1-2)C(N)=O (stereo not drawn) + CNC(=O)c1ccc(Nc2nc(OC3CCCC3)c3c(-c4ccc5nc(C)oc5c4)c[nH]c3n2)c(OC)c1 is below 20% in terms of viability, T/C.
-1

Please determine if CC1(C)CCC(CN2CCN(c3ccc(C(=O)NS(=O)(=O)c4ccc(NCC5CCOCC5)c([N+](=O)[O-])c4)c(Oc4cnc5[nH]ccc5c4)c3)CC2)=C(c2ccc(Cl)cc2)C1 + CNC(=O)c1ccc(Nc2nc(OC3CCCC3)c3c(-c4ccc5nc(C)oc5c4)c[nH]c3n2)c(OC)c1 is below 20% in terms of viability, T/C.
-1
